These measurements were taken from PubChem BioAssay (NCATS).

# remaining parasite growth % (stronger effect = lower value) per record follows
# assay-name: qHTS profiling for inhibitors of Plasmodium falciparum (3D7) proliferation (AID 743322);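 further: infected erythrocytes exposed to compound for 72 h before lysis; 100% = DMSO vehicle wells and 0% = 0.29 µM artemisinin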
# condition-parameters: P. falciparum 3D7 proliferation; at 28.7 µM (top of the series)
# Protocol: Plasmodium falciparum is a virulent malarial parasite that kills 1-2 million people worldwide each year. […] Because mature erythrocytes lack DNA, only Plasmodium-derived DNA is detected. The SYBR Green viability assay was adapted from a method described previously (Plouffe et al., 2008). […] The following morning, fluorescence intensity at 485(14) nm excitation and 535(25) nm emission wavelengths was measured on an EnVision (Perkin Elmer) plate reader. […]
State just the number; it will be interpreted in %.

> print(dat)
                           substance.smiles  unit.label  measured
1  O=C(NCCN1CCCC1)[C@H](Cc1ccc(OS(=O)(=O)c2cccc3cnccc23)cc1)NS(=O)(=O)c1cccc2cnccc12           %     0.578
2  CC(C)(C)OC(=O)N[C@@H](Cc1ccc(O[S+](=O)([O-])c2cccc3cnccc23)cc1)C(=O)N1CCN(c2ccccc2)CC1           %     -1.52
3  O=C([C@H](Cc1ccc(O[S+](=O)([O-])c2cccnc2)cc1)N[S+](=O)([O-])c1cccc2cnccc12)N1CCN(c2ccccc2)CC1           %    0.0541
4  CC(C)(C)OC(=O)N[C@@H](Cc1ccc(O[S+](=O)([O-])c2cccnc2)cc1)C(=O)N1CCN(c2ccccc2)CC1           %    -0.793
5  N[C@@H](Cc1ccc(OS(=O)(=O)c2cccnc2)cc1)C(=O)N1CCN(c2ccccc2)CC1           %      41.2

compound "O=C([C@H](Cc1ccc(O[S+](=O)([O-])c2cccc3cccnc23)cc1)N[S+](=O)([O-])c1cccnc1)N1CCN(c2ccccc2)CC1" , remaining parasite growth % (stronger effect = lower value) observed: -0.283

compound "CC(C)(C)c1cc(O)c(CN)c(C(C)(C)C)c1" , remaining parasite growth % (stronger effect = lower value) observed: -0.824

compound "N[C@@H](Cc1ccc(O[S+](=O)([O-])c2cccc3cccnc23)cc1)C(=O)N1CCN(c2ccccc2)CC1" , remaining parasite growth % (stronger effect = lower value) observed: 0.473

* * *

# assay-name: qHTS drug screen for cell cycle checkpoint inhibitors in PARPi-resistant BRCA-mutant ovarian cancer cell lines. (AID 1963452)
# condition-parameters: PEO1/OlaR viability, CellTiter-Glo luminescence, 96 h; stronger effect = lower value
Lab note - cut at 0.7 for Z-AUC: criterion met if strictly below, criterion not met if not.

> print(dat)
                                   compound     assigned.class
1  CC[C@@H](Oc1cccc(CN(CCCOc2ccc(OC)cc2)c2nc3ccccc3o2)c1)C(=O)O  criterion not met

Problem: Decide: Z-AUC of "C[C@@H]1Cc2c([nH]c3ccccc23)[C@@H](c2c(F)cc(/C=C/C(=O)O)cc2F)N1CC(C)(C)F" strictly below 0.7?
Result: criterion met

Problem: Decide: Z-AUC of "CN1CCN(C(=O)[C@H]2[C@@H](C(=O)O)[C@H]3CC[C@@H]2O3)CC1" strictly below 0.7?
Result: criterion met

Problem: Decide: Z-AUC of "CN1CCN(C(=O)c2ccc(-c3ccc4c(C=O)c(O)ccc4c3)s2)CC1" strictly below 0.7?
Result: criterion not met

* * *

# System: Dd2
# assay-name: qHTS profiling for inhibitors of Plasmodium falciparum proliferation (AID 504749); further: nearly all actives have a fitted effect of over 60% in size
# condition-parameters: P. falciparum in erythrocytes, SYBR Green DNA, 72 h; series mostly up to 28.7 µM
Inconclusive results are not listed. Activity calls are given as the source filed them. The call rests on the fitted dose curve; in most records, active means well fitted inhibition curve with a large enough effect; inconclusive means small, poorly fitted or top-dose-only effect; inactive means flat fitted curve, though single readings scatter.
Return exactly one item of active, inactive

Consider the following illustrative entries.
compound	assay-target	assigned-class
CN1C(=O)CCC1c1cccnc1 (configuration not stated)	Dd2	inactive
CC(/C=C1\SC(=S)N(CC(=O)O)C1=O)=C\c1ccccc1	Dd2	inactive
CN=C(N)NCCCC(N)C(=O)O (configuration not stated)	Dd2	inactive
C[C@@H]1[C@H](O)[C@@H](C)/C=C/C=C/C=C/C=C/C=C/C=C/C=C/[C@H](O[C@@H]2O[C@H](C)[C@@H](O)[C@H](N)[C@@H]2O)C[C@@H]2O[C@](O)(C[C@@H](O)C[C@@H](O)[C@H](O)CC[C@@H](O)C[C@@H](O)CC(=O)O[C@H]1C)C[C@H](O)[C@H]2C(=O)O	Dd2	inactive

Problem: Look up the recorded call for "C[C@@]12C(=O)OC(=O)[C@]1(C)[C@H]1CC[C@@H]2O1" in this test.
Result: active

Problem: Look up the recorded call for CC(C)C[C@H]1C(=O)N2CCCC2[C@]2(O)O[C@](NC(=O)[C@@H]3C=C4c5cccc6[nH]c(Br)c(c56)C[C@H]4N(C)C3)(C(C)C)C(=O)N12 (some centres not stated) in this test.
Result: active

Problem: Look up the recorded call for CN1C[C@H](C(=O)N[C@]2(C)O[C@@]3(O)C4CCCN4C(=O)[C@H](Cc4ccccc4)N3C2=O)C[C@@H]2c3cccc4[nH]cc(c34)C[C@H]21 (some centres not stated) in this test.
Result: active

* * *

# assay-target: 3',5'-cyclic-AMP phosphodiesterase 4B (Homo sapiens)
# assay-name: qHTS Assay for Inhibitors of PDE-IV (AID 607); further: % of control where 0% means no effect
# condition-parameters: HEK293 ACTOne CNG channel cells, membrane potential fluorescence; series mostly up to 22.9 µM
Inconclusive results are not listed. Calls of active or inactive are those of the source. Calls follow the shape of the dose curve; as a rule, active = well fitted activation curve with a large enough effect in the main read-out, with a control signal flat (not every such curve was filed as active); inconclusive = small, poorly fitted or top-dose-only effect, or effect the other way, or a change in a side signal; inactive = flat fitted curve, though single readings scatter.
value-type: outcome

// solved cases for outcome follow
> print(dat)
                           substance.smiles  measured
1  Cc1noc(C)c1-c1ccc2ncnc(Nc3ccc(F)cc3)c2c1  inactive
2    CCCNC[C@H](O)COc1ccccc1C(=O)CCc1ccccc1  inactive
3  CN(C)c1ccc(-c2nc(N(C)Cc3ccco3)c3ccccc3n2)cc1  inactive
4  Cc1noc(C)c1C(=O)N1CCC2(CC1)CN(C(=O)Nc1cccc(F)c1)C2  inactive
5  COCCn1c(=O)c(-c2cccc(C#N)c2)nc2cnc(Oc3ccccc3)nc21  inactive
6        CN(C)Cc1ccccc1-c1cc(Nc2ccccc2)ncn1  inactive
7                     CNc1ncncc1-c1ccccc1OC  inactive
8  COCC(=O)N1CCC2(CCCN(C(=O)Nc3ccc(OC)cc3)C2)CC1  inactive

molecule "O=C(c1csnn1)N1CCC2(CC1)CN(Cc1cc(C(F)(F)F)cc(C(F)(F)F)c1)C2" , outcome observed: inactive

molecule "O=c1c(-c2cccs2)nc2cnc(N3CCNCC3)nc2n1-c1ccccc1" , outcome observed: inactive

molecule "COCCn1c(=O)c(-c2ccccc2)nc2cnc(OCc3ccccc3)nc21" , outcome observed: inactive

* * *

# assay-name: Quantitative high throughput screen for delayed death inhibitors of the malarial parasite plastid, 96 hour incubation (AID 488745);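 further: luciferase-expressing P. falciparum in erythrocytes at 2% hematocrit and 0.1% parasitemia; on the % scale 0 is the no-effect control and ±100 the full control effect; nearly all actives have a fitted effect of over 70% in size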
# condition-parameters: Plasmodium falciparum growth; series mostly up to 28.7 µM
Results filed as inconclusive are left out. Calls of active or inactive are those of the source. The call rests on the fitted dose curve; in most records, active means well fitted inhibition curve with a large enough effect; inconclusive means small, poorly fitted or top-dose-only effect, or effect the other way; inactive means no such curve, though single readings can be large or run the other way.
value-type: outcome

// solved cases for outcome follow
> print(dat)
                                   compound  value.type  measured
1                     NCCNC(=O)c1ccc(Cl)cc1     outcome  inactive
2                 NC(=NCCC[C@H](N)C(=O)O)NO     outcome  inactive
3  O=[N+]([O-])c1ccc(CSc2ncnc3c2ncn3[C@@H]2O[C@H](CO)[C@H](O)[C@H]2O)cc1     outcome  inactive
4  Nc1ncnc2c1nc(Sc1ccc(Cl)cc1)n2[C@H]1O[C@@H]2COP(=O)(O)O[C@H]2[C@@H]1O     outcome  inactive

Consider the record given below.
compound C[C@]12CCC(=O)C=C1CC[C@@H]1C2[C@@H](O)C[C@@]2(C)[C@H]1CC[C@]2(O)C(=O)CO (stereo not given in full) , outcome observed: inactive

* * *

# assay-name: qHTS drug screen for cell cycle checkpoint inhibitors in PARPi-resistant BRCA-mutant ovarian cancer cell lines. (AID 1963452)
# condition-parameters: PEO1/OlaR viability, CellTiter-Glo luminescence, 96 h; stronger effect = lower value
# Text: Women's Malignancies Branch, Center for Cancer Research (CCR), National Cancer Institute (NCI), National Institutes of Health (NIH), Bethesda, MD Poly (ADP-ribose) polymerase inhibitors (PARPis) have changed the treatment paradigm in breast cancer gene (BRCA) - mutant high-grade serous ovarian carcinoma (HGSC). […] 6; Detection; Luminescence, PHERAstar (BMG Labtech) plate reader. […] 6. Luminescence readings were taken using PHERAstar (BMG Labtech). […]
value-type: Z-AUC
Just the number, please, no unit attached.

// solved cases for Z-AUC follow
compound	Z-AUC
CC(=O)NCC(=O)N1[C@@H]2CC[C@H]1c1ccc(Nc3ncc(C(F)(F)F)c(NC4CCC4)n3)cc12	-0.104
COc1cc2nccc(Oc3ccc(NC(=O)c4cn(C(C)C)c(=O)n(-c5ccc(F)cc5)c4=O)cc3F)c2cc1OC	-0.766
CC1(N)CCN(c2cccnc2NC(=O)c2nc(-c3ncccc3C(F)(F)F)cnc2N)CC1	0.421

compound COC1CCC(N2C(=O)CNc3ncc(-c4ccc(C(C)(C)O)nc4)nc32)CC1 (centres undefined) , Z-AUC observed: 1.16

compound "c1ccc(CNCc2ccc(CN3CCCNCCNCCCNCC3)cc2)nc1" , Z-AUC observed: 1.17

compound "Cc1c(F)cccc1NC(=O)Nc1ccc(Cl)c(S(=O)(=O)[C@H]2CCCNC2)c1O" , Z-AUC observed: 1.68

compound "NS(=O)(=O)c1ccc(Cc2c(-c3cccc(-c4ccccc4)c3)nn(-c3nc(C(=O)O)cs3)c2CC2CC2)cc1" , Z-AUC observed: -1.08

compound "CCN(CC)CCNc1ccc(C)c2sc3ccccc3c(=O)c12" , Z-AUC observed: -1.21

compound "CC(=O)Nc1cc(Oc2ccc3c(nc(Nc4ccc(F)cc4F)n3C)c2C)ccn1" , Z-AUC observed: -0.216

compound OC1CCC(Oc2cccc3cnc(Nc4ccc5nc[nH]c5c4)nc23)CC1 (centres undefined) , Z-AUC observed: -1.25

compound "C[C@@H](Oc1cc(C(=O)Nc2ccc(C(=O)N3CCN(C)CC3)cc2)nnc1N)c1c(Cl)ccc(F)c1Cl" , Z-AUC observed: -0.576

compound C[C@@H](O)[C@@H](C)Oc1nc(Nc2ccc(S(=N)(=O)C3CC3)cc2)ncc1C(F)(F)F (some centres undefined) , Z-AUC observed: -1.04

compound "CS(=O)(=O)c1ccc([C@@H](CC2CCCC2)C(=O)Nc2nccs2)cc1" , Z-AUC observed: 0.78

compound "CC(C)OC(=O)[C@H](C)N[P@](=O)(OC[C@H]1O[C@@H](n2ccc(=O)[nH]c2=O)[C@](C)(F)[C@@H]1O)Oc1ccccc1" , Z-AUC observed: -0.0429
